# TARGET OF ASSAY: full-length beta-Catenin (Uniprot ID P35222) (Homo sapiens (Human)) (UniProt P35222)
# PROTOCOL NOTES: fluorescence polarization competition; full-length beta-catenin with 5FAM-TCF4(10-53) probe as competitor
pIC50: −log10 of the molar value. Starred links: 1 amine or outer side, 2 acyl side, 3 side chain; linkers in the order of their positions; H or OH if unused. Positions of bridges follow the written chain, without caps; N, C: chain ends. Non-standard residues stand in square brackets, D forms with d. Primed or numbered codes have the meaning given here. No end group written: not given here. *: point of attachment. PyrS2″ = (S)-3-amino-1-((pent-4-en-1-yloxy)carbonyl)pyrrolidine-3-carboxylic acid (stapling residue), C=CCCCOC(=O)N1CC[C@@](N[*:1])(C(=O)[*:2])C1; B5(16) = 2-amino-2-(pent-4-en-1-yl)hept-6-enoic acid = 2,2-bis(4-pentenyl)glycine (stitching residue), C=CCCCC(CCCC=C)(N[*:1])C(=O)[*:2]; B5(4) = 2,2-bis(4-pentenyl)glycine = 2-amino-2-(pent-4-en-1-yl)hept-6-enoic acid (stitching residue), C=CCCCC(CCCC=C)(N[*:1])C(=O)[*:2]; TfeGA(3) = (S)-2-amino-3-((carboxymethyl)(2,2,2-trifluoroethyl)amino)prop[anoic acid], O=C([C@H](CN(CC(=O)[*:3])CC(F)(F)F)N[*:1])[*:2]; TfeGA = (S)-2-amino-3-((carboxymethyl)(2,2,2-trifluoroethyl)amino)propanoic acid, O=C([C@H](CN(CC(=O)[*:3])CC(F)(F)F)N[*:1])[*:2]; PyrS2 = (S)-3-amino-1-((pent-4-en-1-yloxy)carbonyl)pyrrolidine-3-carboxylic acid, C=CCCCOC(=O)N1CC[C@@](N[*:1])(C(=O)[*:2])C1; B5(7) = 2-amino-2-(pent-4-en-1-yl)hept-6-enoic acid, two olefinic side chains, C=CCCCC(CCCC=C)(N[*:1])C(=O)[*:2]; B5 = 2-amino-2-(pent-4-en-1-yl)hept-6-enoic acid, C=CCCCC(CCCC=C)(N[*:1])C(=O)[*:2]; NdiMeButC = N-terminal 4-(dimethylamino)butanoyl, CN(C)CCCC(=O)*; Phe(3-CF3) = N[C@@H](Cc1cccc(C(F)(F)F)c1)C(=O)O; Abu(4,4,4-F3) = N[C@@H](CC(F)(F)F)C(=O)O; Bta = N[C@@H](Cc1csc2ccccc12)C(=O)O; αAllylPro = C=CC[C@@]1(C(=O)O)CCCN1; hPhe = N[C@@H](CCc1ccccc1)C(=O)O; tBuAla = CC(C)(C)C[C@H](N)C(=O)O; 3Thi = N[C@@H](Cc1ccsc1)C(=O)O; Cha = N[C@@H](CC1CCCCC1)C(=O)O; Cit = NC(=O)NCCC[C@H](N)C(=O)O; S8 = C=CCCCCCC[C@](C)(N)C(=O)O
PROPERTY LABEL: pIC50

Q. Which pIC50 value is on record for [αAllylPro]D[tBuAla][B5(4)]DDAAFF[PyrS2″][hPhe][Bta]Q-NH2 (staple 1-4, 4-11) [I-1351] ?
A. 6.59

1: Ac-[αAllylPro]DI[B5(4)]D[TfeGA(3)]AAFQ[S8]F[Bta]H-NH2 (staple 1-4, 4-11) [I-500]
2: [αAllylPro]D[tBuAla][B5(4)]DDAAFS[PyrS2″]F[Bta]S-NH2 (staple 1-4, 4-11) [I-1357]
Q. # returns the entry with the larger pIC50; inputs 1 and 2 Response format: the label of the selected entry.
A. 2
(2: 8.00, 1: 6.75)

A: Ac-[αAllylPro]DI[B5]D[TfeGA]AAFQ[S8]F[Bta]Q-NH2 (staple 1-4, 4-11; not fully specified) [I-610]
B: Ac-[αAllylPro]D[tBuAla][B5(4)]DDAAF[Phe(3-CF3)][PyrS2][3Thi][Bta]Q-NH2 (staple 1-4, 4-11) [I-1364]
C: Ac-[αAllylPro]D[Abu(4,4,4-F3)][B5(4)]DEAAFQ[S8]F[Bta]Q-NH2 (staple 1-4, 4-11; also: earlier eluting HPLC peak (staple isomer)) [I-501]
D: Ac-[αAllylPro]D[tBuAla][B5(7)]DDAAFQ[PyrS2][3Thi][Bta]Q-NH2 (staple 1-4, 4-11) [I-764]
Q. # ascending order, key=pIC50 List the labels according to the requested ordering.
A. C, A, D, B

1: Ac-[αAllylPro]DL[B5]DEAAF[Cit][S8]F[Bta]H-NH2 (staple 1-4, 4-11) [I-616]
2: NdiMeButC-[αAllylPro]D[tBuAla][B5(4)]DDAAFS[PyrS2″]F[Bta]S-NH2 (staple 1-4, 4-11) [I-1354]
3: Ac-[αAllylPro]D[tBuAla][B5(7)]DDAAFQ[PyrS2][3Thi][Bta]H-NH2 (staple 1-4, 4-11) [I-771]
Q. # ascending order, key=pIC50 List the labels according to the requested ordering.
A. 1, 2, 3

a: Ac-[αAllylPro]DI[B5]D[TfeGA]AAFQ[S8]F[Bta]Q-NH2 (staple 1-4, 4-11; also: staple isomer 2 (later eluting HPLC peak)) [I-611]
b: Ac-[αAllylPro]D[Cha][B5(16)]DEAAFN[S8]F[Bta]Q-NH2 (staple 1-4, 4-11; also: later-eluting staple isomer composition) [I-620]
Q. Of a versus b , which is the one with smaller reported pIC50? Response format: the label of the selected entry.
A. a
